target: 5-hydroxytryptamine receptor 6 (Homo sapiens, UniProt P50406); test: Antagonist activity at human cloned 5-HT6 receptor expressed in HeLa cells assessed as inhibition of 5-HT-stimulated conversion of [alpha-33P]ATP to [33P]cAMP; assay type: functional, cell-based
Sequence (P50406 whole entry): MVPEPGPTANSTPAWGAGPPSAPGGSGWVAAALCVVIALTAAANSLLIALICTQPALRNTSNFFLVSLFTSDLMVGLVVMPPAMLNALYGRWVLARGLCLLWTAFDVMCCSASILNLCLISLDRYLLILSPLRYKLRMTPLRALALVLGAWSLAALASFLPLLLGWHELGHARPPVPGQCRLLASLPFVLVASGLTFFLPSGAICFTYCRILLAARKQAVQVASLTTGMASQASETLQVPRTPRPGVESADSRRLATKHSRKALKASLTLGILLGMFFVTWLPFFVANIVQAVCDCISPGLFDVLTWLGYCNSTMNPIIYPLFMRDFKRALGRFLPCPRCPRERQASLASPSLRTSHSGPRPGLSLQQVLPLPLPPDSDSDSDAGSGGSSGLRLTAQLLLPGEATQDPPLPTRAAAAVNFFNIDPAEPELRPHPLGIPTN
Calls of active or inactive are those of the source. No cut-off for these calls is given here.
measurementLabel: antagonist activity (active/inactive call)

Exercise: Field request: antagonist activity (active/inactive call) | item: "CSc1nc2c(C)cccn2c(=N)c1S(=O)(=O)c1ccccc1"
Solution: Active

Exercise: And "N=c1c(S(=O)(=O)c2ccccc2)c(NCCO)nc2ccccn12" ?
Solution: Active

Exercise: And "CCCc1ccn2c(=N)c(S(=O)(=O)c3ccccc3)c(SC)nc2c1" ?
Solution: Active

Exercise: And "CSc1nc2ccccn2/c(=N\C(C)=O)c1S(=O)(=O)c1ccccc1" ?
Solution: Active

Exercise: And "CSc1nc2ccccn2c(=N)c1S(=O)(=O)c1ccc(C(C)(C)C)cc1" ?
Solution: Active

Exercise: And "CSc1nc2ccc(C)cn2c(=N)c1S(=O)(=O)c1ccccc1" ?
Solution: Active

Exercise: And "CSc1nc2ccccn2c(=O)c1S(=O)(=O)c1ccccc1" ?
Solution: Active

Exercise: And "CSc1nc2c(C)cc(Br)cn2c(=N)c1S(=O)(=O)c1ccccc1" ?
Solution: Active

***
Exercise: Field request: antagonist activity (active/inactive call) | item: "CSc1nc2ccc(F)cn2c(=N)c1S(=O)(=O)c1ccccc1"
Solution: Active

Exercise: And "Cc1ccc(Nc2nc3ccc(C)cn3c(=N)c2S(=O)(=O)c2ccccc2)nc1" ?
Solution: Active

Exercise: And C[S+]([O-])c1nc2ccccn2c(=N)c1S(=O)(=O)c1ccccc1 (stereo unspecified) ?
Solution: Active

====

assay: Permeability of the compound; assay type: ADME; conditions: not told; read-out: permeability
measurementLabel: Papp (×10⁻⁶ cm/s)
# output: bare number, implied unit ×10⁻⁶ cm/s

Exercise: Field request: Papp | item: "CSc1nc2ccccn2c(=N)c1S(=O)(=O)c1ccccc1"
Solution: 17

====

assay: Oral bioavailability in rat; assay type: ADME, organism-based; details: in vivo
measurementLabel: bioavailability

Exercise: Field request: bioavailability | item: "CSc1nc2ccccn2c(=N)c1S(=O)(=O)c1ccccc1"
Solution: < 1%

====

molecular target: 5-hydroxytryptamine receptor 6 (Homo sapiens, UniProt P50406); assay: Displacement of [3H]LSD from human cloned 5-HT6 receptor expressed in HeLa cells
pIC50: −log10 of the molar value.
Answer 0 if pIC50 is under 7, and 1 if it is 7 or more.

Exercise: pIC50 >= 7 for "CSc1nc2ccccn2c(=N)c1S(=O)(=O)c1ccc(Cl)c(Cl)c1" ?
Solution: 1

Exercise: And "CSc1nc2ccccn2c(=O)c1S(=O)(=O)c1ccccc1" ?
Solution: 1

Exercise: And "CSc1nc2ccc(F)cn2c(=N)c1S(=O)(=O)c1ccccc1" ?
Solution: 1

Exercise: And "CSc1nc2ccccn2c(=N)c1S(=O)(=O)c1ccc(F)cc1" ?
Solution: 1

Exercise: And "CSc1nc2ccccn2c(=N)c1S(=O)(=O)c1ccc2ccccc2c1" ?
Solution: 1

Exercise: And "CSc1nc2ccc(C(N)=O)cn2c(=N)c1S(=O)(=O)c1ccccc1" ?
Solution: 1

====

target: 5-hydroxytryptamine receptor 6 (Homo sapiens, UniProt P50406); assay: Antagonist activity at human cloned 5-HT6 receptor expressed in HeLa cells assessed as inhibition of 5-HT-stimulated conversion of [alpha-33P]ATP to [33P]cAMP; format: functional, cell-based
The source made the active and inactive calls. The calls are words filed in the database; no cut-off is given here.
measurementLabel: antagonist activity (active/inactive call)

Here's what some known entries look like.
Exercise: Report antagonist activity (active/inactive call) for "CSc1nc2c(C)cc(Cc3ccccc3)cn2c(=N)c1S(=O)(=O)c1ccccc1" tested on 5-hydroxytryptamine receptor 6 (Homo sapiens, UniProt P50406).
Solution: Active

Exercise: And "CCNc1nc2ccccn2c(=N)c1S(=O)(=O)c1ccccc1" ?
Solution: Active

Exercise: And "CSc1nc2ccc(C(N)=O)cn2c(=N)c1S(=O)(=O)c1ccccc1" ?
Solution: Active

Exercise: And "CSc1nc2cc(C)ccn2c(=N)c1S(=O)(=O)c1ccccc1" ?
Solution: Active

***
Exercise: Report antagonist activity (active/inactive call) for "CSc1nc2ccccn2c(=N)c1S(=O)(=O)c1ccc(F)cc1" tested on 5-hydroxytryptamine receptor 6 (Homo sapiens, UniProt P50406).
Solution: Active

Exercise: And "CNc1nc2ccccn2c(=N)c1S(=O)(=O)c1ccccc1" ?
Solution: Active

====

biological target: 5-hydroxytryptamine receptor 6 (Homo sapiens, UniProt P50406); experiment: Displacement of [3H]LSD from human cloned 5-HT6 receptor expressed in HeLa cells
pIC50: −log10 of the molar value.
Answer NOT MET if pIC50 is under 7, and MET if it is 7 or more.

Below are worked cases with known answers.
Exercise: pIC50 >= 7 for "CSc1nc2c3ncccc3ccn2c(=N)c1S(=O)(=O)c1ccccc1" ?
Solution: MET

Exercise: And "CCCc1ccn2c(=N)c(S(=O)(=O)c3ccccc3)c(SC)nc2c1" ?
Solution: NOT MET

Exercise: And "CSc1nc2ccc(Cl)cn2c(=N)c1S(=O)(=O)c1ccccc1" ?
Solution: MET

Exercise: And "CNc1nc2ccccn2c(=N)c1S(=O)(=O)c1ccccc1" ?
Solution: MET

Exercise: And "Cc1ccc(Nc2nc3ccc(C)cn3c(=N)c2S(=O)(=O)c2ccccc2)nc1" ?
Solution: MET

***
Exercise: pIC50 >= 7 for "CCOc1nc2ccccn2c(=N)c1S(=O)(=O)c1ccccc1" ?
Solution: MET

Exercise: And "CSc1nc2c(Cc3ccccc3)cccn2c(=N)c1S(=O)(=O)c1ccccc1" ?
Solution: NOT MET

Exercise: And "CSc1nc2ccccn2c(=N)c1S(=O)(=O)c1ccc(OC(F)(F)F)cc1" ?
Solution: NOT MET

Exercise: And "CSc1nc2ccccn2c(=N)c1S(=O)(=O)c1cc(C)c(Cl)cc1C" ?
Solution: MET

Exercise: And C[S+]([O-])c1nc2ccccn2c(=N)c1S(=O)(=O)c1ccccc1 (stereo unspecified) ?
Solution: NOT MET

Exercise: And "COc1nc2ccccn2c(=N)c1S(=O)(=O)c1ccccc1" ?
Solution: MET

Exercise: And "CSc1nc2c(C)cc(Cc3ccccc3)cn2c(=N)c1S(=O)(=O)c1ccccc1" ?
Solution: MET

Exercise: And "CSc1nc2c(C)cccn2c(=N)c1S(=O)(=O)c1ccccc1" ?
Solution: MET

====

target: 5-hydroxytryptamine receptor 6 (Homo sapiens, UniProt P50406); experiment: Displacement of [3H]LSD from human cloned 5-HT6 receptor expressed in HeLa cells
# maps each entry to its IC50
# output: bare number, implied unit nM

Exercise: Field request: IC50 | item: "CSc1nc2c(Br)cc(C)cn2c(=N)c1S(=O)(=O)c1ccccc1"
Solution: 126

***
Exercise: Field request: IC50 | item: "CSc1nc2ccccn2c(=N)c1S(=O)(=O)c1ccc(C(C)(C)C)cc1"
Solution: 65

Exercise: And "C/N=c1/c(S(=O)(=O)c2ccccc2)c(SC)nc2ccccn12" ?
Solution: 120
